study system: GLP-1 Receptor (Homo sapiens)
Construct: host or cells: HEK293/GLP1R/CRE-LUC (HEK293/CRE-Luc stably expressing GLP-1R)
Sequence (P43220 24-463): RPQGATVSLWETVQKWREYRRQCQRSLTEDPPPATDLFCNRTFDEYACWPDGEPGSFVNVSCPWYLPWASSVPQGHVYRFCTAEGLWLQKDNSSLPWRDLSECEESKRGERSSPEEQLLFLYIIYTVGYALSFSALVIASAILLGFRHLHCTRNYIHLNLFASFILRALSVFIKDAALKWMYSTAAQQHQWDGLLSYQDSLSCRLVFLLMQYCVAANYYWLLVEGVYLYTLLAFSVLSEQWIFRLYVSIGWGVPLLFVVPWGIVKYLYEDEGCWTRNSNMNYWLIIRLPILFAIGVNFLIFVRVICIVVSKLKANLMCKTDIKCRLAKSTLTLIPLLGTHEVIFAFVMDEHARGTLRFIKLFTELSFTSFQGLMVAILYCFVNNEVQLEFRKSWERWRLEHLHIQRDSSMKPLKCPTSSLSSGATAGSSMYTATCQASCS
assay info: GLP-1R agonist cAMP stimulation assay (HEK293/GLP1R/CRE-LUC cells, HTRF cAMP dynamic 2 kit)
Assay type: cell-based
condition parameters: HEK293/CRE-Luc cell line (HDB), 30 min incubation, read-out: GLP1R cAMP Stimulation DR: EC50 (nM) [Species: Human, Assay Cell Line: HDB]
readout label: EC50 (nM)

[
  {
    "compound": "Cc1cc(-c2nn3c(c2-n2ccn(-c4ccc5c(cnn5C)c4F)c2=O)C(C)N(C(=O)c2cc4cc(C5CCOCC5)ccc4n2[C@@]2(c4noc(=O)[nH]4)C[C@@H]2C)CC3)cc(C)c1F (some centres unmarked) [Compound 109a]",
    "study system": "GLP-1 Receptor (Homo sapiens)",
    "readout label": "EC50",
    "endpoint result": 0.18
  },
  {
    "compound": "CCP(=O)(CC)c1ccc(-n2ccn(-c3c(-c4cc(C)c(F)c(C)c4)nn4c3C(C)N(C(=O)c3cc5cc([C@H]6CCOC(C)(C)C6)ccc5n3[C@@]3(c5noc(=O)[nH]5)C[C@@H]3C)CC4)c2=O)cc1NC (single isomer, unassigned) [Compound 113a]",
    "study system": "GLP-1 Receptor (Homo sapiens)",
    "readout label": "EC50",
    "endpoint result": 0.17
  }
]
